- Tested on: CYP3A4
- measurement.description: Human CYP 3A4 induction assay (mRNA, cryopreserved human hepatocytes)
- Type: in vitro ADME
- particulars: human hepatocytes, 10 uM test compound, 72 hours, mRNA, percent of control (rifampin positive control)
measured.attribute: CYP3A4 mRNA Induct Hu 10 uM POC (%)

Study these solved cases before continuing.
[[record]]
compound = "COc1cc([C@H]2C[C@@H]2C(F)(F)F)c(F)cc1-n1c(=O)ccc2cc(S(=O)(=O)Nc3ncccn3)ccc21 (atropisomer, axis not shown; (P))"
measured_attribute = "CYP3A4 mRNA Induct Hu 10 uM POC"
measure_unit = "%"
assay_value = 34.81

[[record]]
compound = "COc1cc([C@@H]2C[C@H]2C(F)(F)F)ccc1-n1c(=O)ccc2cc(S(=O)(=O)Nc3ccon3)ccc21 (atropisomer, axis not shown; (P))"
measured_attribute = "CYP3A4 mRNA Induct Hu 10 uM POC"
measure_unit = "%"
assay_value = 29.06

[[record]]
compound = "COc1cc([C@@H]2C[C@H]2COC(F)(F)F)c(F)cc1-n1c(=O)ccc2cc(S(=O)(=O)Nc3ccon3)ccc21 (atropisomer, axis not shown; (P))"
measured_attribute = "CYP3A4 mRNA Induct Hu 10 uM POC"
measure_unit = "%"
assay_value = 64.54


(1) COc1cc([C@@H]2C[C@H]2C(F)(F)F)c(F)cc1-n1c(=O)ccc2cc(S(=O)(=O)Nc3ccon3)c(F)cc21 (single isomer, unassigned)
(2) COc1cc(C2(C(F)(F)F)CC2)c(Cl)cc1-n1c(=O)ccc2cc(S(=O)(=O)Nc3ncccn3)ccc21 (atropisomer, axis not shown; (P))
Req: Could you tell me which of 1 and 2 has the lower CYP3A4 mRNA Induct Hu 10 uM POC reading? Please indicate the selected item by its label.
Resp: 1
(1: 24.57%, 2: 88.68%)

---

- target.of.assay: Human NaV1.7 (Homo sapiens)
- Construct: expressed in transfected cells; host or cells: Spiking HEK cells (without Kir2.1 transfection)
- Sequence (Q15858 whole entry): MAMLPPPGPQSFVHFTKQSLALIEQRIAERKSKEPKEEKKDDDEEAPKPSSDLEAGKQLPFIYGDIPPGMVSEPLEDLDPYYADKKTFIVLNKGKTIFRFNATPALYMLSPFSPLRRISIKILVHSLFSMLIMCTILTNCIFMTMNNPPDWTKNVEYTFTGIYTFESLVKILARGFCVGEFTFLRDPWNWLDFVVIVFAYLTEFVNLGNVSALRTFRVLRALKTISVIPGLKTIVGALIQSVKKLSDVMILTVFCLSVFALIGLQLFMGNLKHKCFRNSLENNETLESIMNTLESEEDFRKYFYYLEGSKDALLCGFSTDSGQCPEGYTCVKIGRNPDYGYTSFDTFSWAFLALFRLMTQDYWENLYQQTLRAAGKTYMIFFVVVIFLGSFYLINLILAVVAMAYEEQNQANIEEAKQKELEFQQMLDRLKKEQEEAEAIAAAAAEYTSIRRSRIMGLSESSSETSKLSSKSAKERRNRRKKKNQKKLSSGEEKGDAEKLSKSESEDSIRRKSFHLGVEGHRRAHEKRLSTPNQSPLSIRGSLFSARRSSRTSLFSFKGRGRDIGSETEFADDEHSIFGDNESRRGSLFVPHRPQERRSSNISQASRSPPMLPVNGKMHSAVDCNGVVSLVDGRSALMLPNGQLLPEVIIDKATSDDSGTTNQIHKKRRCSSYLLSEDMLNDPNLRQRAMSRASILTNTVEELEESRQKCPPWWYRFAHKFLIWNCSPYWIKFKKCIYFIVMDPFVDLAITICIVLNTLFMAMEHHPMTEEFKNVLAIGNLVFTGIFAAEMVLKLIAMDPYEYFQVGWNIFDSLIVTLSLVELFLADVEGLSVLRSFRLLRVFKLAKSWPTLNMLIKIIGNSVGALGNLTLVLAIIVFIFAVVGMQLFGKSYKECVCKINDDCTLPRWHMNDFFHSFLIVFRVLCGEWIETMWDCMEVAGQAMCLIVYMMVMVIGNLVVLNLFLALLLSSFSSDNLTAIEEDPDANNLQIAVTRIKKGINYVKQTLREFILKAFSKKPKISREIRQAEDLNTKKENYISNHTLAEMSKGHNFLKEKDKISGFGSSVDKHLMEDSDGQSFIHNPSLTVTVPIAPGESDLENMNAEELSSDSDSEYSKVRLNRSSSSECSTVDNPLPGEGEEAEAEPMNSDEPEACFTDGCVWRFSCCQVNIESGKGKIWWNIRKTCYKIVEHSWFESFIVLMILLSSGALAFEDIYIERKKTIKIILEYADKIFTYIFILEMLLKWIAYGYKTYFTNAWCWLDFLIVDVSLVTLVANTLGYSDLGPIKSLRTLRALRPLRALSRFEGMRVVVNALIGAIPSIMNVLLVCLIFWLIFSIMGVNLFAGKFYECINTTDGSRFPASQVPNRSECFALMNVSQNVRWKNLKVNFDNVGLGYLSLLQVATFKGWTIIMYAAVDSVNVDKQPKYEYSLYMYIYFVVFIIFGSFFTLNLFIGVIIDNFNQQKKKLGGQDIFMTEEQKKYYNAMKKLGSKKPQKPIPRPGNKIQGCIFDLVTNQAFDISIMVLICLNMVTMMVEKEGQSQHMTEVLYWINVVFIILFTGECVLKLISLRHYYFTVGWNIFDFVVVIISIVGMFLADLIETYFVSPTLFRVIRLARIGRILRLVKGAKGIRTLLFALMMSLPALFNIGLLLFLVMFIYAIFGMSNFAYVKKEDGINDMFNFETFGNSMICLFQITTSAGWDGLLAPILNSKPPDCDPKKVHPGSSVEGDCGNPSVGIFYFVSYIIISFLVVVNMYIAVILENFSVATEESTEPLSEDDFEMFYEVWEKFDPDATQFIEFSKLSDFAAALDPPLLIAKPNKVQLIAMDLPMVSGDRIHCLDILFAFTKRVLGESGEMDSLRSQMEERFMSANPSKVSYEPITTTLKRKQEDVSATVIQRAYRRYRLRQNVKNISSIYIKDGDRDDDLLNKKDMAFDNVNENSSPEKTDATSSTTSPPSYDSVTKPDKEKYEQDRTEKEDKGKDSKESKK
- measurement.description: Ionworks Barracuda (IWB) automated patch clamp assay
- Assay type: cell-based
- particulars: human NaV1.7 currents in HEK cells, population patch clamp, state- and use-dependent voltage protocol; read-out: hNaV1.7 IWB-U IC50
pIC50: −log10 of the molar value.
measured.attribute: pIC50

Study these solved cases before continuing.
[[record]]
molecule = "COc1cc([C@@H]2C[C@H]2C(F)(F)F)c(Cl)cc1-n1c(=O)ccc2cc(S(=O)(=O)Nc3cccnn3)ccc21 (atropisomer, axis not shown; (P))"
assay_value = 7.72

[[record]]
molecule = "COc1cc([C@H]2C[C@H]2C2CC2)c(F)cc1-n1c(=O)ccc2cc(S(=O)(=O)Nc3ccon3)ccc21 (atropisomer, axis not shown; (P))"
assay_value = 7.59

[[record]]
molecule = "COc1cc([C@@H]2C[C@H]2C(F)(F)F)c(F)cc1-n1c(=O)ccc2cc(S(=O)(=O)Nc3nncs3)ccc21 (atropisomer, axis not shown; (P))"
assay_value = 8.10

[[record]]
molecule = "COc1cc([C@@H]2C[C@H]2COC(F)(F)F)c(F)cc1-n1c(=O)ccc2cc(S(=O)(=O)Nc3ccon3)ccc21 (atropisomer, axis not shown; (P))"
assay_value = 8.05


(A) COc1cc([C@@H]2C[C@H]2C(F)(F)F)c(F)cc1-n1c(=O)ccc2cc(S(=O)(=O)Nc3ccon3)c(F)cc21 (single isomer, unassigned)
(B) COc1cc([C@H]2C[C@@H]2COC(F)(F)F)c(F)cc1-n1c(=O)ccc2cc(S(=O)(=O)Nc3ccon3)ccc21 (atropisomer, axis not shown; (P))
(C) COc1cc([C@@H]2C[C@H]2C(F)(F)F)c(C)cc1-n1c(=O)ccc2cc(S(=O)(=O)Nc3ccon3)ccc21 (atropisomer, axis not shown; (P))
Req: Hi! Can you put these in order of pIC50, lowest number first? // ordering of labels required in reply
Resp: C, A, B
(C: 7.72, A: 8.10, B: 8.40)
